EXPERIMENTAL SYSTEM: Protein deacetylase HDAC6 (Homo sapiens)
Sequence (Q9UBN7 whole entry): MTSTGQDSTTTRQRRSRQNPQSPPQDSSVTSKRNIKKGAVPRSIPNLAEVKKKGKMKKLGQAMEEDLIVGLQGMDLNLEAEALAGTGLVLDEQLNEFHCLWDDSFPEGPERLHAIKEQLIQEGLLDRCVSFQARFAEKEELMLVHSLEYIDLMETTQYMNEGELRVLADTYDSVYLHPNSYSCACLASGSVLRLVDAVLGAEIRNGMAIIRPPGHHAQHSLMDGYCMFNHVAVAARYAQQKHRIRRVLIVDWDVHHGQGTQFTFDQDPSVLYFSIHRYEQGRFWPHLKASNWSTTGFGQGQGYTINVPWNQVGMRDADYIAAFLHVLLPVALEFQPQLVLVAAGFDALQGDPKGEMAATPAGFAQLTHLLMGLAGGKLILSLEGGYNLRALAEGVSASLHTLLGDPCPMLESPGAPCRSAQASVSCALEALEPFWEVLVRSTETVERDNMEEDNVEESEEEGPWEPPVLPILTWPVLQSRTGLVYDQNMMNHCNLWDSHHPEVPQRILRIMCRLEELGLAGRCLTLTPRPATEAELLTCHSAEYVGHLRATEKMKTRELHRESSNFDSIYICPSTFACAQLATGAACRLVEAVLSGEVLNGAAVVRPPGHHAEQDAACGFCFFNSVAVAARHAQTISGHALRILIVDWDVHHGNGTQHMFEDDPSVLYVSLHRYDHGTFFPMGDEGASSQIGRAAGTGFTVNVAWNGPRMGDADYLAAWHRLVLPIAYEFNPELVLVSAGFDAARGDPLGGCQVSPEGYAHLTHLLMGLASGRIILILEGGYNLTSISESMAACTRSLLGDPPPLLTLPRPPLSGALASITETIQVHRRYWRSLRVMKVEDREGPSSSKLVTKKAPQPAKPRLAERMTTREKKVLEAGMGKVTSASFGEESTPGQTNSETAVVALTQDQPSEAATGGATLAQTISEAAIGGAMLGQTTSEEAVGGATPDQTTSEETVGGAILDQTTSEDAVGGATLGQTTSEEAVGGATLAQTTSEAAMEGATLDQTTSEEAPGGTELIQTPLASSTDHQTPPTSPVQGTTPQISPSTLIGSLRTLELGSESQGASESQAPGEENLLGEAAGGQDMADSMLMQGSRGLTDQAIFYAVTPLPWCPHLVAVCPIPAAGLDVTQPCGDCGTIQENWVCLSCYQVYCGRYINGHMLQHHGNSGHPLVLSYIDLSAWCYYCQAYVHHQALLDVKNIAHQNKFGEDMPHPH
ASSAY NAME: Inhibition of HDAC6 (unknown origin) using Boc-Lys(acetyl)-AMC as substrate preincubated for 1 hr followed by substrate addition measured after 2 hrs by fluorescence assay
Each entry below lists one item and its recorded IC50 value.

Worked examples, 3 molecules total:
CCCCCNNC(=O)c1ccc(CNC(=O)[C@H](Cc2c[nH]c3ccccc23)NC(=O)c2ccc(OC)cc2)cc1 ... > 100 µM
CCCNNC(=O)/C=C/c1ccc(OC[C@H](Cc2c[nH]c3ccccc23)NC(=O)c2ccc(OC)cc2)cc1 ... > 100 µM
CCCNNC(=O)c1ccc(NC(=O)[C@H](Cc2c[nH]c3ccccc23)NC(=O)c2ccc(OC)cc2)cc1 ... 50 to 100 µM

Entry under review: CCCNNC(=O)CCCCCCNC(=O)[C@H](Cc1c[nH]c2ccccc12)NC(=O)c1ccc(OC)cc1 . Reported IC50?
> 100 µM

Entry under review: COc1ccc(C(=O)N[C@@H](Cc2c[nH]c3ccccc23)C(=O)NCc2ccc(C(=O)NNC3CCCC3)cc2)cc1 . Reported IC50?
> 100 µM

Entry under review: COc1ccc(C(=O)N[C@@H](Cc2c[nH]c3ccccc23)C(=O)NCc2ccc(C(=O)NNc3ccccc3)cc2)cc1 . Reported IC50?
> 100 µM
